Recorded values, source patent US20090291971A1.

# measured.target: PI3K alpha (Homo sapiens, UniProt P42336)
# Sequence (P42336 whole entry, species assumed): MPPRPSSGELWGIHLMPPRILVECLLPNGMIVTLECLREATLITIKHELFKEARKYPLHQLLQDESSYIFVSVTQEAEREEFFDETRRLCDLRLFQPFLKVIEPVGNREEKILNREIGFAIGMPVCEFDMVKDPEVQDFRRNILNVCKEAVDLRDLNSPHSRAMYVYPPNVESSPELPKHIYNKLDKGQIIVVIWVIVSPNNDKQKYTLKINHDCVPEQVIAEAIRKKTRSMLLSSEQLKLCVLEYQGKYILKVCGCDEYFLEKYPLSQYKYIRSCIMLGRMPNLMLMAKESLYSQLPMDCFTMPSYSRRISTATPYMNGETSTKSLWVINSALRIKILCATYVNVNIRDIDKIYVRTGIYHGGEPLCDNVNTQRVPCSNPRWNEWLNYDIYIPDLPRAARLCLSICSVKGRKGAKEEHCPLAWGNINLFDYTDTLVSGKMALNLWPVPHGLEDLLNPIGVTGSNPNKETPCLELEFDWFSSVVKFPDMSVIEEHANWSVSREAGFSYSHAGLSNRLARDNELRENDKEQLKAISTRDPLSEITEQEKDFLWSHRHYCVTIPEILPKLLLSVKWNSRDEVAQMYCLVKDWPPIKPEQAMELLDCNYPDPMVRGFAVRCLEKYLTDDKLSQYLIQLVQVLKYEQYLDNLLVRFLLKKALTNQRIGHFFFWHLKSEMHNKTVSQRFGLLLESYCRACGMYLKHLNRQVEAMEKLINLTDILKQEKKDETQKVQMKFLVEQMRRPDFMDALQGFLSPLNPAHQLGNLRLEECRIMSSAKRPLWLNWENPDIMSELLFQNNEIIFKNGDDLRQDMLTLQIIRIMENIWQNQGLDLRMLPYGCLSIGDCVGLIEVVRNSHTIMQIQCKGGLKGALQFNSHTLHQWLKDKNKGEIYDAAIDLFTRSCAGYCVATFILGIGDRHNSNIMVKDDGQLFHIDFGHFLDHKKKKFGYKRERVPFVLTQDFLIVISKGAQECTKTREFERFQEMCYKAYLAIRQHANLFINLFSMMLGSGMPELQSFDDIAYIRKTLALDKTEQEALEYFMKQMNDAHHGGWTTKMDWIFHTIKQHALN
# Sequence (P27986 whole entry partner, species assumed): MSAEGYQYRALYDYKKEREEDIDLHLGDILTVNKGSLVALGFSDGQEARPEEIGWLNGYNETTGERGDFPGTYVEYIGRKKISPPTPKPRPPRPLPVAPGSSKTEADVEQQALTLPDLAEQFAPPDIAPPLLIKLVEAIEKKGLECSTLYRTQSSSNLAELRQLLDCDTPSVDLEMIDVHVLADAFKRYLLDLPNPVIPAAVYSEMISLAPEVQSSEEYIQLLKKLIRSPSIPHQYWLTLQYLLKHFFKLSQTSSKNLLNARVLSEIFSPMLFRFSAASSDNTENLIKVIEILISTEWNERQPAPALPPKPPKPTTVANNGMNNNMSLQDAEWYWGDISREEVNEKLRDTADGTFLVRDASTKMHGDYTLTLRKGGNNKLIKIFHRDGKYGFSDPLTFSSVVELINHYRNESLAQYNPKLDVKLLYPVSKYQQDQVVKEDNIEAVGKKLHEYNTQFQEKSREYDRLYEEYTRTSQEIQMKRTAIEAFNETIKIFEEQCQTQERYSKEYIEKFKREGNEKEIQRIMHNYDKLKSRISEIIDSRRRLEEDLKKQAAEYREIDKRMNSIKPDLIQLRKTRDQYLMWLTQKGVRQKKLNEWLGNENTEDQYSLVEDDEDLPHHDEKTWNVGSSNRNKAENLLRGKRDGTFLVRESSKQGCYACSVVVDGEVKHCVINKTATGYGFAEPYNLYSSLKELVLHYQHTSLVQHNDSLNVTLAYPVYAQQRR
# experiment: PI3 Kinase Assay (PI3K alpha)
# Format: biochemical
Outcome: y for inhibition at 30 µM of at least 40%; n for anything lower.

| molecule.smiles | label.class |
| --- | --- |
| N#Cc1ccc(Oc2ncnc3ccccc23)cc1 | n |
| c1ccc2c(Oc3ccc4[nH]ccc4c3)ncnc2c1 | y |
| CC(=O)c1ccccc1Oc1ncc(Br)cn1 | y |
| Clc1ccc(Oc2ncnc3ccccc23)cn1 | y |
| COc1ncccc1Oc1ncc(Br)cn1 | y |
| COC(=O)c1sc2ncnc(Oc3cccc([N+](=O)[O-])c3)c2c1C | n |
| Cc1noc(C)c1Oc1ncnc2ccccc12 | y |
| N#Cc1cccc(Oc2ncnc3sccc23)c1 | n |
